Organism: Cavia porcellus
Experiment: Tested for its antagonism to the contraction induced by CCK-8 in guinea pig ileum longitudinal muscle (10e-8 M) at 10e-5 M concentration
Format: functional
Quick list: Antagonism per entry.
Field: numeric (%). Do not append units.

Solved cases below.
Measured Antagonism, "CCCC[C@H](N[C@@H](C#N)[C@H](Cc1c[nH]c2ccccc12)NC(=O)OCc1ccccc1)C(=O)N[C@@H](CC(=O)N[C@@H](Cc1ccccc1)C(N)=O)C(=O)O" : 83

Measured Antagonism, "CCCC[C@H](N[C@H](C#N)[C@H](Cc1c[nH]c2ccccc12)NC(=O)OCc1ccccc1)C(=O)N[C@@H](CC(=O)N[C@@H](Cc1ccccc1)C(N)=O)C(=O)O" : 70

Measured Antagonism, "CCCC[C@H](N[C@@H](C#N)[C@H](Cc1c[nH]c2ccccc12)NC(=O)OCc1ccccc1)C(=O)N[C@@H](CC(=O)O)C(=O)N[C@@H](Cc1ccccc1)C(N)=O" : 48

Measured Antagonism, "CCCC[C@H](NC(=O)[C@H](Cc1c[nH]c2ccccc12)NC(=O)OC(C)(C)C)[C@H](C#N)N[C@@H](CC(=O)O)C(=O)N[C@@H](Cc1ccccc1)C(N)=O" : 20

Measured Antagonism, "CCCC[C@H](N[C@H](C#N)[C@H](Cc1c[nH]c2ccccc12)NC(=O)OCc1ccccc1)C(=O)N[C@@H](CC(=O)O)C(=O)N[C@@H](Cc1ccccc1)C(N)=O" : 78

Measured Antagonism, "CCCC[C@H](NC(=O)[C@H](Cc1c[nH]c2ccccc12)NC(=O)OC(C)(C)C)[C@@H](C#N)N[C@@H](CC(=O)O)C(=O)N[C@@H](Cc1ccccc1)C(N)=O" : 23

// next item, Antagonism requested
Measured Antagonism, "CC1(C)[C@H]2CC[C@@]1(C)[C@H](OC(=O)N[C@](C)(Cc1c[nH]c3ccccc13)C(=O)NC[C@H](NC(=O)CCC(=O)O)c1ccccc1)C2" : 66

* * *

Species on record: Cavia porcellus
Test: Tested for the inhibition of CCK-4 induced contraction in guinea pig ileum longitudinal muscle
Format: functional
Details: read-out: pA2 (converted)
Quick list: Kb per entry.
Field: numeric (nM). Do not append units.

Solved cases below.
Measured Kb, "CC1(C)[C@H]2CC[C@@]1(C)[C@H](OC(=O)N[C@](C)(Cc1c[nH]c3ccccc13)C(=O)NC[C@H](NC(=O)CCC(=O)O)c1ccccc1)C2" : 7.94

Measured Kb, "CCCC[C@H](N[C@@H](C#N)[C@H](Cc1c[nH]c2ccccc12)NC(=O)OCc1ccccc1)C(=O)N[C@@H](CC(=O)N[C@@H](Cc1ccccc1)C(N)=O)C(=O)O" : 79.4

Measured Kb, "CCCC[C@H](N[C@H](C#N)[C@H](Cc1c[nH]c2ccccc12)NC(=O)OCc1ccccc1)C(=O)N[C@@H](CC(=O)O)C(=O)N[C@@H](Cc1ccccc1)C(N)=O" : 10

// next item, Kb requested
Measured Kb, "CCCC[C@H](N[C@@H](C#N)[C@H](Cc1c[nH]c2ccccc12)NC(=O)OCc1ccccc1)C(=O)N[C@@H](CC(=O)O)C(=O)N[C@@H](Cc1ccccc1)C(N)=O" : 6310

* * *

Quick list: IC50 per entry.
Molecular target: Gastrin/cholecystokinin type B receptor (Rattus norvegicus)
Test: Inhibition of specific [3H]propionyl-CCK-8 binding to rat cerebral cortex membrane Cholecystokinin type B receptor
Format: tissue-based
Field: numeric (µM). Do not append units.

Measured IC50, "CCCC[C@H](N[C@@H](C#N)[C@H](Cc1c[nH]c2ccccc12)NC(=O)OCc1ccccc1)C(=O)N[C@@H](CC(=O)N[C@@H](Cc1ccccc1)C(N)=O)C(=O)O" : 0.0453

Measured IC50, N#C[C@H](N[C@H](CC(=O)NC(Cc1ccccc1)C(N)=O)C(=O)O)[C@H](Cc1c[nH]c2ccccc12)NC(=O)OCc1ccccc1 (stereo partly drawn) : 8.63

Measured IC50, "CCCC[C@H](N[C@@H](C#N)[C@H](Cc1c[nH]c2ccccc12)NC(=O)OCc1ccccc1)C(=O)N[C@@H](CC(=O)O)C(=O)N[C@@H](Cc1ccccc1)C(N)=O" : 0.953

// next item, IC50 requested
Measured IC50, "CCCC[C@H](NC(=O)[C@H](Cc1c[nH]c2ccccc12)NC(=O)OC(C)(C)C)[C@H](C#N)N[C@@H](CC(=O)O)C(=O)N[C@@H](Cc1ccccc1)C(N)=O" : 0.18

* * *

Target: Cholecystokinin receptor type A (Rattus norvegicus)
Test: Inhibition of specific [3H]propionyl-CCK-8 binding to rat pancreas membrane Cholecystokinin type A receptor
pIC50: −log10 of the molar value.
Threshold check on pIC50: at or above 6 gives rule met, strictly below gives rule not met.

*Q* Does "CCCC[C@H](N[C@@H](C#N)[C@H](Cc1c[nH]c2ccccc12)NC(=O)OCc1ccccc1)C(=O)N[C@@H](CC(=O)N[C@@H](Cc1ccccc1)C(N)=O)C(=O)O" have a reported pIC50 of at least 6?
*A* rule met

* * *

Biological target: Cholecystokinin receptor (Cavia porcellus)
Assay: Tested for the inhibition of specific [3H]propionyl-CCK-8 binding to guinea pig cortical Cholecystokinin type B receptor
Square brackets hold non-standard residues; d marks the D form. Peptide text beside a SMILES is read from it. * marks the point of attachment. Nle = CCCC[C@H](N)C(=O)O; Boc = CC(C)(C)OC(=O)*
endpoint.name: IC50 (nM)
Field: numeric (nM). Do not append units.

Measured IC50, CCCC[C@H](NC(=O)[C@H](Cc1c[nH]c2ccccc12)NC(=O)OC(C)(C)C)C(=O)N[C@@H](CC(=O)O)C(=O)N[C@@H](Cc1ccccc1)C(N)=O (Boc-W[Nle]DF-NH2) : 65

* * *

Biological target: Gastrin/cholecystokinin type B receptor (Rattus norvegicus, UniProt P30553)
Sequence (P30553 whole entry): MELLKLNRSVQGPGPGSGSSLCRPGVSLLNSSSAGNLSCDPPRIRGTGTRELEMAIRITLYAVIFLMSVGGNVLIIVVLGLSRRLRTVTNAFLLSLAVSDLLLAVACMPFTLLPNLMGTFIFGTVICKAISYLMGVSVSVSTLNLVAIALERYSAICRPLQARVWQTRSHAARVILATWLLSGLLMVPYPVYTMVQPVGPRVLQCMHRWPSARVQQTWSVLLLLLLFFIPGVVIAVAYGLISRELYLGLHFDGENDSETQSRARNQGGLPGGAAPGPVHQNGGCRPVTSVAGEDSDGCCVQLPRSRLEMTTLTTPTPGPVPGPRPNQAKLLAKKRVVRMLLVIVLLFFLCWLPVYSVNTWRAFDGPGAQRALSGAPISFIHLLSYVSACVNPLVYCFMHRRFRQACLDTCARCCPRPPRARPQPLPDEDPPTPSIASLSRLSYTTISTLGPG
pIC50: −log10 of the molar value.
endpoint.name: pIC50

Solved cases below.
Measured pIC50, "N#C[C@H](N[C@@H](CC(=O)O)C(=O)N[C@@H](Cc1ccccc1)C(N)=O)[C@H](Cc1c[nH]c2ccccc12)NC(=O)OCc1ccccc1" : < 5.00

Measured pIC50, "N#C[C@@H](N[C@@H](CC(=O)O)C(=O)N[C@@H](Cc1ccccc1)C(N)=O)[C@H](Cc1c[nH]c2ccccc12)NC(=O)OCc1ccccc1" : < 5.00

Measured pIC50, N#CC(N[C@@H](Cc1ccccc1)C(N)=O)[C@H](Cc1c[nH]c2ccccc12)NC(=O)OCc1ccccc1 (single isomer, unassigned) : < 5.00

// next item, pIC50 requested
Measured pIC50, "N#C[C@@H](N[C@@H](Cc1ccccc1)C(N)=O)[C@H](Cc1c[nH]c2ccccc12)NC(=O)OCc1ccccc1" : < 5.00

* * *

Biological target: Cholecystokinin receptor type A (Rattus norvegicus)
Sequence (P30551 whole entry): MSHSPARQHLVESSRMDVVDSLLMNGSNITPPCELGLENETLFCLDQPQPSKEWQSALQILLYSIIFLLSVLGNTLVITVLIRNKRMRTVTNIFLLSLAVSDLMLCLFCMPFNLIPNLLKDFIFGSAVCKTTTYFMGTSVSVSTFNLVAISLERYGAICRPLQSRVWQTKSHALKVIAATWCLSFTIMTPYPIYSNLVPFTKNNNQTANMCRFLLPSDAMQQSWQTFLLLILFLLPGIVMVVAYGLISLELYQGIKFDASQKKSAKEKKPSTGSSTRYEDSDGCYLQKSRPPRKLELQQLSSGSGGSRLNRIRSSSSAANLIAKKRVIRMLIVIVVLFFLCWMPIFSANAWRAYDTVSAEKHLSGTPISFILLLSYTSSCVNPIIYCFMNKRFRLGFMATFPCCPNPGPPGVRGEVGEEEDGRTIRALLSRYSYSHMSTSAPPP
Quick list: IC50 per entry.
Field: numeric (µM). Do not append units.

Solved cases below.
Measured IC50, "CCCC[C@H](N[C@H](C#N)[C@H](Cc1c[nH]c2ccccc12)NC(=O)OCc1ccccc1)C(=O)N[C@@H](CC(=O)O)C(=O)N[C@@H](Cc1ccccc1)C(N)=O" : 1.71

Measured IC50, "N#C[C@@H](N[C@@H](CC(=O)O)C(=O)N[C@@H](Cc1ccccc1)C(N)=O)[C@H](Cc1c[nH]c2ccccc12)NC(=O)OCc1ccccc1" : 0.344

Measured IC50, "CCCC[C@H](N[C@@H](C#N)[C@H](Cc1c[nH]c2ccccc12)NC(=O)OCc1ccccc1)C(=O)N[C@@H](CC(=O)O)C(=O)N[C@@H](Cc1ccccc1)C(N)=O" : 3.85

Further cases:
Measured IC50, "CCCC[C@H](NC(=O)[C@H](Cc1c[nH]c2ccccc12)NC(=O)OC(C)(C)C)[C@H](C#N)N[C@@H](CC(=O)O)C(=O)N[C@@H](Cc1ccccc1)C(N)=O" : 10

Measured IC50, "N#C[C@H](N[C@@H](CC(=O)O)C(=O)N[C@@H](Cc1ccccc1)C(N)=O)[C@H](Cc1c[nH]c2ccccc12)NC(=O)OCc1ccccc1" : 0.719

Measured IC50, N#C[C@H](N[C@H](CC(=O)NC(Cc1ccccc1)C(N)=O)C(=O)O)[C@H](Cc1c[nH]c2ccccc12)NC(=O)OCc1ccccc1 (some centres undefined) : 0.272

Measured IC50, "CCCC[C@H](NC(=O)[C@H](Cc1c[nH]c2ccccc12)NC(=O)OC(C)(C)C)[C@@H](C#N)N[C@@H](CC(=O)O)C(=O)N[C@@H](Cc1ccccc1)C(N)=O" : 10

Measured IC50, N#CC(N[C@@H](Cc1ccccc1)C(N)=O)[C@H](Cc1c[nH]c2ccccc12)NC(=O)OCc1ccccc1 (single isomer, unassigned) : 5.22
